ASSAY_INFO: Cytotoxicity against human U937 cells assessed as cell viability at 20 uM relative to control
Assay type: cell-based, U-937
CONDITION_LABEL: read-out: Activity
OBSERVATION_TYPE: viability at 20 µM (%)
The answer is to be given in %; state only the numeric part.

>>> df
                                   molecule  measured
0  CCOC(=O)C1=C(OCC)C(=O)OC1C1=C(Cl)c2ccc(C)c(C)c2OC1 (stereo not given)      89.9
1  CCOC(=O)C1=C(OCC)C(=O)OC1c1c(Cl)c2cc(C)c(C)cc2oc1=O (stereo not given)        79
2  COC(=O)C1=C(OC)C(=O)OC1C1=C(Cl)c2cc(Cl)ccc2OC1 (stereo not given)      84.6
3  COC(=O)C1=C(OC)C(=O)OC1c1c(Cl)c2ccccc2oc1=O (stereo not given)      78.3

Ask | Reported viability at 20 µM, molecule COC(=O)C1=C(OC)C(=O)OC1C1=C(Cl)c2c(ccc(C)c2C)OC1 (stereo not given) : ____
Reply | 92.1

Where do these numbers come from? They come from ChEMBL document CHEMBL4622947.
